These entries and their values trace back to the supplement of paper PMC9170038.

Tested on: MS2 coat protein
MEASUREMENT PROTOCOL: apparent KD of MS2 coat protein; designed switch direction (-1 OFF switch, 1 ON switch): -1; higher = weaker reporter binding
PROTOCOL CONDITIONS: input ligand: none
PROPERTY: apparent KD of MS2 coat protein (nM)
Number in nM, nothing else.

[
  {
    "PRIMARY SEQUENCE": "ACUCACGCAGGAUAUACAUGAGGAUCACCCAUGUUCGAAGGGCGUGGGCACAAAGUCUGUAGAAGGGCGAAAAU [Zave] (Eterna round: R97, puzzle: Exclusion 3)",
    "SUBJECT OF TEST": "MS2 coat protein",
    "PROPERTY": "apparent KD of MS2 coat protein",
    "ENDPOINT UNIT": "nM",
    "VALUE REPORTED": 16.3
  },
  {
    "PRIMARY SEQUENCE": "GUCGUGCGGCUUUGCUGUGCGGGUGCAUGAGGAUCACCCAUGUAGGAUAUGGUACGCUUUGCGUGCCAGAAGGGCGUGCGUUGG [salish99_ExNG3_r04_009] (Eterna round: R96, puzzle: Exclusion NG 3)",
    "SUBJECT OF TEST": "MS2 coat protein",
    "PROPERTY": "apparent KD of MS2 coat protein",
    "ENDPOINT UNIT": "nM",
    "VALUE REPORTED": 110
  },
  {
    "PRIMARY SEQUENCE": "UUUAGUUCAGGAUAUGUAGAUUUUAACAUGAGGAUCACCCAUGUAGAUCCUGAUCCUGCUACAGAAGGGAAGAUUU [Mat - Exclusion 5 - Eli Mod - D7] (Eterna round: R97, puzzle: Exclusion 5)",
    "SUBJECT OF TEST": "MS2 coat protein",
    "PROPERTY": "apparent KD of MS2 coat protein",
    "ENDPOINT UNIT": "nM",
    "VALUE REPORTED": 23.9
  }
]

INPUT: So what's the measured apparent KD of MS2 coat protein for this one? UUUUACAGGCUUAGAUCCUACAUGAGGAUCACCCAUGUGGUCCGGUGACGUGAGUCACCGGACUAAGCUCGUCUUGU [JL TOV1 3.72] (Eterna round: R97, puzzle: Sensor, turn-off variant 1)
OUTPUT: 143

INPUT: Please give the result for AAGAUGUCAGGAUAUUAGUAGUAAAUGAAUAAAAUUAUUACUGAGAAGGGACAUGAGGAUCACCCAUGUGCCUU [Mat - Exclusion 4 - Eli Mod - D10] (Eterna round: R97, puzzle: Exclusion 4) too.
OUTPUT: 16.6

* * *

Tested on: MS2 coat protein
MEASUREMENT PROTOCOL: apparent KD of MS2 coat protein; designed switch direction (-1 OFF switch, 1 ON switch): -1; higher = weaker reporter binding
PROTOCOL CONDITIONS: Eterna round: R95; input ligand: none
Classify by measured apparent KD of MS2 coat protein: 1 if it is equal to or exceeds 0.09 µM, 0 if it is smaller.

Look over these answered cases.
[
  {
    "PRIMARY SEQUENCE": "UUUUUCGAACAAGCUUCGUACAUGAGGAUCACCCAUGUUUUUAGUUUUGUGUUGGUCAGUAUGGAAGUUCGUCUUAU [JR_SV3TOV1_Sub088] (puzzle: Sensor v3, turn-off variant 1)",
    "QUALITATIVE LABEL": 1
  },
  {
    "PRIMARY SEQUENCE": "AGUACUAACACGAUAGUGUUAGUACUAUAAGCUUGUGUUACAUGAGGAUCACCCAUGUCCUCAUAAGCUCGUCUUGA [Mat - Sensor v3 - Turn-off var 2 - D92] (puzzle: Sensor v3, turn-off variant 2)",
    "QUALITATIVE LABEL": 0
  },
  {
    "PRIMARY SEQUENCE": "GUAUGUUAUGAGGAUAUCGGUGAACAUACACAUCGAGAAGGCAUGACAUGAGGAUCACCCAUGUCAAGGAUGUA [Exclusion 6 - B - 18:b] (puzzle: Exclusion 6)",
    "QUALITATIVE LABEL": 0
  },
  {
    "PRIMARY SEQUENCE": "UUUAAAAUUUCAAUCUUCGCUGGCAAACUUGCGCCAGCUACAUGAGGAUCACCCAUGUUUUUUGCCCGUCUUAUUCU [Inisti] (puzzle: Sensor v3, turn-off variant 2)",
    "QUALITATIVE LABEL": 0
  },
  {
    "PRIMARY SEQUENCE": "GGUACUAACACGAGAGUGUUAGUACUAUAAGCUUGUGUUACAUGAGGAUCACCCAUGUCCUCAUAGGCUCGUCUUAA [Mat - Sensor v3 - Turn-off var 2 - D81] (puzzle: Sensor v3, turn-off variant 2)",
    "QUALITATIVE LABEL": 0
  }
]

INPUT: Given the entry AUGAGACAUGAGGAUCACCCAUGUGAGGAUAUGUAUGGAUGGUGGAAAGAAUGAGAGAACAGAAGGCACGUAGA [JR_Exclu1_Sub062] (puzzle: Exclusion 1) , answer whether its apparent KD of MS2 coat protein meets or surpasses 0.09 µM.
OUTPUT: 1

* * *

Property: apparent KD of MS2 coat protein; scope: individual sequences
Test system: MS2 coat protein
MEASUREMENT PROTOCOL: apparent KD of MS2 coat protein; designed switch direction (-1 OFF switch, 1 ON switch): -1; higher = weaker reporter binding
PROTOCOL CONDITIONS: input ligand: none
Just the number please, in nM, no unit attached.

Worked cases, answers included:
[
  {
    "PRIMARY SEQUENCE": "CGAUGAGCGGUGAGGAUAUCGUGUUCGAAAGAACGUGAGAAGGCACAUGAGGAUCACCCAUGUGAUCCUCAUCG [Omei Ex4B A34] (Eterna round: R97, puzzle: Brourd's mod of Exclusion 4)",
    "ENDPOINT UNIT": "nM",
    "apparent KD of MS2 coat protein": 15.2
  },
  {
    "PRIMARY SEQUENCE": "UUAGUGUAAGGAUAUCCUAUUACGAAGUAGCAACGGUAGAGGGAGAAGGUACAUGAGGAUCACCCAUGUGUCGC [Eternabot (L2) Solution 38] (Eterna round: R97, puzzle: Exclusion 4)",
    "ENDPOINT UNIT": "nM",
    "apparent KD of MS2 coat protein": 24.5
  },
  {
    "PRIMARY SEQUENCE": "GUCAUGAUAGGAUAUUACGGACGGAACAUGAGGAUCACCCAUGUGUCCCAAUCCAACUGAUAAGAAGGAUCAUGGC [Eternabot (Original) Solution 34] (Eterna round: R97, puzzle: Exclusion 5)",
    "ENDPOINT UNIT": "nM",
    "apparent KD of MS2 coat protein": 14.5
  },
  {
    "PRIMARY SEQUENCE": "AGUUUACAUGAGGAUCACCCAUGUGAGGAUAUGGAUUCGCUGGCCGUAGCCAGUGGAUCCAGAAGGCGCGUGAU [JL-ex1-4.29] (Eterna round: R97, puzzle: Exclusion 1)",
    "ENDPOINT UNIT": "nM",
    "apparent KD of MS2 coat protein": 101
  }
]

Continue with the sequence presented below.
INPUT: Name the reported apparent KD of MS2 coat protein value associated with the sequence AAUAUCGUAGGAUAUUAGUGCUCAGACAUGAGGAUCACCCAUGUUUGGUGGGUUGGAGAAUGAGAAGGGCGAUGAA [EX5 #17] (Eterna round: R97, puzzle: Exclusion 5)
OUTPUT: 687

* * *

Tested on: K4 kissing-loop RNA reporter;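 note: bound reporter read as fluorescence of individual clusters on recovered sequencing chips by microscopy, with normalized cluster intensities fitted with a binding model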
MEASUREMENT PROTOCOL: apparent KD of K4 kissing-loop reporter; higher = weaker reporter binding
PROTOCOL CONDITIONS: Eterna round: R107; input ligand: theophylline 20 uM
Known apparent KD of K4 kissing-loop reporter of a selection of sequences
Response body: numeric value in nM, unit text excluded.

[
  {
    "PRIMARY SEQUENCE": "AAGUGUGUGGCGGCCGCCACUAGAAUCCAGUGAUGUUGGAGUAAUCAAAUAAAUGAUAAUCAACAUAGGACCGGGCCAUAUAGAA [Same State - Tryptophan B (Freestyle 3)]",
    "apparent KD of K4 kissing-loop reporter, nM": 351
  }
]

INPUT: Please look up its apparent KD of K4 kissing-loop reporter: UAAGAUUCUGUCUCAUUGAGACAGAAUCAACGAGGACCGGUACGGCCGCCACUCGGGUCCUAGAGUGAUGUUCUAAUAAUAUAAU [AK1 SS Tryptophan A]
OUTPUT: 369

INPUT: For AUAAACUUGCAGUGAUGUUGCAAGUAAGACUAGGAUAUCAGGAAACUGAGAAGGAGUCAUCUCCUUCAACUGCAAGAAUGAAGGA [[K1]-[K2]-[F1]-[F2]-[F]'-[K]'-[F]''_Design4] then?
OUTPUT: 104

INPUT: Follow-up item: AGUAAUGUCACGGCCGCCACUCUUUAUUGUUUUUAUAGUUAUAAAUCUUGCCAGUGAUGUUGGUAGAGGACCGGGUGACUUAAUA [#26 K4 Tryptophan B Same State]
OUTPUT: 199

INPUT: Try this sequence too: AAGGCAUUCAGAAGGAGCGUGGUUUAAUCAUUAAUAUUUUUUACGAGUGAUGUUCGUAAUUCACAGGUAGGUCGCUGAAUAAUAA [JR_ExcArginiB_Sub008]
OUTPUT: 134

INPUT: Next sequence up: UCUGUGUCCGCGGCCGCCACUCGGGACUAAGUGAUGUUUAGUCCUUCAGAAUAAAGAAGUGAUGAGAGGACCGGGCGAUCGCACC [theeternabot_sameState_KL_Trp_B_2]
OUTPUT: 72.3

INPUT: Next sequence: AGUGUGCAAAAGCACACUCAGAACAAGGACAAGGAUAUCUACUAAUAGAGAAGGUGUCCUUUCCUUAGUGAUGUUAAGGAACUGA [Omei KL FMN A SS D v5]
OUTPUT: 680

INPUT: Please answer likewise for AUGCUUAUAAUAACACUAUAUACAACUGAAGGAGCGACAAUAAAGUCAGGUAGGUCGCAGAAUAAAUGAGUGAUGUUCAUUUUUA [JR_ExcArginiA_Sub010]
OUTPUT: 144

INPUT: And what about the sequence AGGAUCCACCAGUGAUGUUGGAAAUACAUCAAGGAUAUGACGAAAGUCAGAAGGUGGUAGACUGGACAAAGUCCAGUUGGAUCCA [KL-SSFMN-A18] ?
OUTPUT: 112

INPUT: Repeat with GGCCCGGGCUCGGCCGCCACUCCCUCGUACCGCAAGGUAUGAUACCGAGUGAUGUUCGGUUGGAGGAGGACCGGGAGCCCGGGCC [#2 Exclusion - Tryptophan B Attempt #6 (HarryS)]
OUTPUT: 101

INPUT: Do the same for CCUGCUACGUAAGGAUAUGGAAAUGAGUGAUGUUUAGAGAUAUGGUCCAGGUUUAGUCAUCAUAGACCAGAAGGUACAUCGGGCG [theeternabot_exclusion_KL_FMN_B_8] please
OUTPUT: 364
